// data source = paper PMC8003314

Recorded IC50, one value per entry.
- testedTarget: electric eel AChE (Electrophorus electricus)
- Construct: purchased Sigma (Sigma-Aldrich, St. Louis, MO, USA)
- Sequence (O42275 24-633): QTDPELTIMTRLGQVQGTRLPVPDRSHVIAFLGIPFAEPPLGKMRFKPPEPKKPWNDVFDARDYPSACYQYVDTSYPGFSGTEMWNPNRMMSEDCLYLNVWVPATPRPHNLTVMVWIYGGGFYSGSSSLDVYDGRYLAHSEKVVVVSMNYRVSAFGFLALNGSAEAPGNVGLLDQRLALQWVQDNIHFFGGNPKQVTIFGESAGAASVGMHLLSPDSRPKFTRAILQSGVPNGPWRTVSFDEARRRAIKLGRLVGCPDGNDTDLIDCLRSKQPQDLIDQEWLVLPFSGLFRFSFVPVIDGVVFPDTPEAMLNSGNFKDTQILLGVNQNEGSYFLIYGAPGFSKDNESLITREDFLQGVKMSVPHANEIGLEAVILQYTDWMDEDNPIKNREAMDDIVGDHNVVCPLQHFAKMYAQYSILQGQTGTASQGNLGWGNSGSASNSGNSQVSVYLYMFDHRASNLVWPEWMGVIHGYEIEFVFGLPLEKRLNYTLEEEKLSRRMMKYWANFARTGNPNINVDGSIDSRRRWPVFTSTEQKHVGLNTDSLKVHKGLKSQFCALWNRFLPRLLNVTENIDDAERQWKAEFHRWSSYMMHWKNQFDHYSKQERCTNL
- methodDescription: AChE inhibition assay (modified Ellman method)
- Assay type: biochemical
- measurementContext: 0.1 M sodium phosphate pH 8.0, 37 °C, 200 µM acetylthiocholine
Your answer should be a plain number; it is taken to be in µM.

Example compounds with recorded IC50:
* CN(C)Cc1ccc(CCN2C(=O)c3cccc4cc([N+](=O)[O-])cc(c34)C2=O)o1 [Compound 12] | 0.36
* CN(C)Cc1ccc(CSCCN2C(=O)c3cccc4c(Cl)ccc(c34)C2=O)o1 [Compound 8] | 1.23
* CN(C)Cc1nc(CSCCN2C(=O)c3cccc4cc([N+](=O)[O-])cc(c34)C2=O)cs1 [Compound 10] | 0.52

Query: Given the entry CN(C)Cc1nc(CSCCN2C(=O)c3cccc4cccc(c34)C2=O)cs1 [Compound 9] , report its measured IC50.
Response: 2.02
